I'd be grateful if you could share measured selectivity ratio for these entries.
Protocol text: Selectivity index, ratio of EC50 for mouse J774 cells to EC50 for infective form of Trypanosoma brucei brucei strain 427
Format: toxicity, cell-based
Condition notes: read-out: Ratio EC50

// query Fill in the blank: the reported selectivity ratio of `CC[C@H](C)[C@H](NC(=O)c1csc([C@@H](NC(=O)c2csc(CNC(=O)OC(C)(C)C)n2)[C@@H](C)CC)n1)c1nc(C(=O)OC)c(C)o1` is ____.
// result 150

// query Which selectivity ratio value belongs to `CC[C@H](C)[C@@H]1NC(=O)c2csc(n2)[C@H]([C@@H](C)CC)NC(=O)c2csc(n2)CNC(=O)c2coc1n2` ?
// result 4.3

Recorded values, source ChEMBL document CHEMBL3217733.
